Attribution: ChEMBL document CHEMBL5614416

Tested on: HeLa
procedure.details: Antiproliferative activity against human HeLa cells incubated for 48 hrs by MTT assay
Type: functional, cell-based
readout.label: IC50

[Q] Annotate the compound COc1ccc(N(C)c2nc(C)nc3ccsc23)cc1OC with its measured IC50.
[A] > 100 nM

[Q] Annotate the compound Cc1nc(N(C)c2ccc3c(ccn3C)c2)c2sccc2n1 with its measured IC50.
[A] 5.37 nM

[Q] Annotate the compound COc1ccc(N(C)c2nc(C)nc3ccsc23)cc1C(F)(F)F with its measured IC50.
[A] > 100 nM

[Q] Annotate the compound Cc1nc(N(C)c2ccccc2C)c2sccc2n1 with its measured IC50.
[A] > 100 nM

[Q] Annotate the compound Cc1nc(N(C)c2ccc3ccccc3c2)c2sccc2n1 with its measured IC50.
[A] 9 nM

[Q] Annotate the compound Cc1nc(N(C)c2cccc(OC(F)(F)F)c2)c2sccc2n1 with its measured IC50.
[A] > 100 nM

[Q] Annotate the compound COc1cc(OC)cc(N(C)c2nc(C)nc3ccsc23)c1 with its measured IC50.
[A] > 100 nM

[Q] Annotate the compound COc1ccc(N(C)c2nc(C)nc3ccsc23)cc1[N+](=O)[O-] with its measured IC50.
[A] 20 nM

[Q] Annotate the compound Cc1nc(N(C)c2ccc(C(F)(F)F)cc2)c2sccc2n1 with its measured IC50.
[A] > 100 nM

[Q] Annotate the compound Cc1nc(N(C)c2cc(Cl)cc(Cl)c2)c2sccc2n1 with its measured IC50.
[A] > 100 nM

[Q] Annotate the compound COc1ccccc1N(C)c1nc(C)nc2ccsc12 with its measured IC50.
[A] > 100 nM

[Q] Annotate the compound Cc1ccc(N(C)c2nc(C)nc3ccsc23)cc1 with its measured IC50.
[A] > 100 nM
